All figures here come from PubChem BioAssay (EPA / NIEHS).

# assay.protocol: CCTE_Mundy_HCI_Cortical_Synap_Neur_Matur_CellBodySpotCount: CCTE's Synaptogenesis and Neurite Maturation Assay in rat cortical cells for Cell Body Spot Count, Mundy Lab (AID 2284223)
# Protocol: CCTE_Mundy_HCI_Cortical_Synap&Neurite_Matur is a multiplexed, cell-based-readout assay that uses rat primary cortical cells with measurements taken at 288.33 hours after chemical dosing in a microplate: 96-well plate.CCTE_Mundy_HCI_Cortical_Synap_Neur_Matur_CellBodySpotCount is one of eight components of the CCTE_Mundy_HCI_Cortical_Synap&Neurite_Matur assay. […]
The source made the active and inactive calls. Rule for the calls: active = hit-call score of the fitted dose curve at least 0.9, where 1 is the maximum; inactive = score below 0.9.
Write down the outcome that applies. Available outcomes: t (active), f (inactive)

// known answers, use as guide
CC(CNC(=S)[S-])NC(=S)[S-].[Zn+2] (configuration not stated) = f
CCCCCC(C)(CC)C(=O)NC (configuration not stated) = f

GET /call?item= `CC(=O)N[C@@H](CC(=O)O)C(=O)O` returns the recorded outcome of this test.
f

GET /call?item= `C[C@@H]1CCO[C@H]2Cn3cc(C(=O)NCc4ccc(F)cc4F)c(=O)c(O)c3C(=O)N12` returns the recorded outcome of this test.
f

GET /call?item= `O=C1CC2(CCCC2)CC(=O)N1CCCCN1CCN(c2ncccn2)CC1` returns the recorded outcome of this test.
f

GET /call?item= `CC(C)c1nn(C(=O)NC(C)(C)C)c(=O)n1N` returns the recorded outcome of this test.
f

GET /call?item= `[O]=[V]([OH])([OH])[OH]` returns the recorded outcome of this test.
t

---

# assay.protocol: CCTE_Shafer_MEA_dev_LDH: CCTE's Lactate Dehydrogenase Assay for Cytotoxicity in the Neural Network Formation Assay, Shafer Lab (AID 2284068);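 note: exposure for twelve days from plating with re-dosing on DIV 5 and 9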
Results filed as inconclusive are left out. The source made the active and inactive calls. How the source made its calls: active means hit-call score of the fitted dose curve at least 0.9, where 1 is the maximum; inconclusive means response in the unintended direction; inactive means score below 0.9.
Write down the outcome that applies. Available outcomes: class 1 = active, class 0 = inactive

CC(C)O = class 0
F = class 0

GET /call?item= `CCc1ccccc1` returns the recorded outcome of this test.
class 1

GET /call?item= CC(CNC(=S)[S-])NC(=S)[S-].[Zn+2] (stereo unspecified) returns the recorded outcome of this test.
class 1

GET /call?item= `c1ccc2c(c1)ccc1c3ccccc3ccc21` returns the recorded outcome of this test.
class 0

GET /call?item= `Brc1cc(Br)c(Oc2cc(Br)c(Br)cc2Br)cc1Br` returns the recorded outcome of this test.
class 1

GET /call?item= `[O]=[V]([OH])([OH])[OH]` returns the recorded outcome of this test.
class 1

---

# assay.protocol: CCTE_Deisenroth_DEVTOX-GLR_legacy_CellCount: (Legacy) Viability Assessment in CCTE's DevTox GLR-Endo Assay, Deisenroth Lab (AID 2284331)
# particulars: actives raise or lower the signal
Active and inactive are the calls of the source. The calls were made as follows: active = hit-call score of the fitted dose curve at least 0.9, where 1 is the maximum; inactive = score below 0.9.
Write down the outcome that applies. Available outcomes: active, inactive

// known answers, use as guide
COc1ccc2[nH]c([S@@](=O)Cc3ncc(C)c(OC)c3C)nc2c1 = active
NC(=O)c1ccc(-c2nc(-c3ccc4c(c3)OCO4)c(-c3ccccn3)[nH]2)cc1 = inactive
Nc1cccc2c1C(=O)N(C1CCC(=O)NC1=O)C2=O (configuration not stated) = active
Oc1cc(O)c2c(c1)O[C@H](c1ccc(O)c(O)c1)[C@@H](O)C2 = active
c1cc(-c2cnn3cc(-c4ccc(OCCN5CCCCC5)cc4)cnc23)ccn1 = active

GET /call?item= `Nc1nc2c(ncn2COCCO)c(=O)[nH]1` returns the recorded outcome of this test.
inactive

GET /call?item= `CC1(C)S[C@@H]2[C@H](NC(=O)Cc3ccccc3)C(=O)N2[C@H]1C(=O)O` returns the recorded outcome of this test.
inactive

---

# study.system: Cellular tumor antigen p53 (Homo sapiens) (UniProt P04637)
# Sequence (P04637 whole entry, looked up): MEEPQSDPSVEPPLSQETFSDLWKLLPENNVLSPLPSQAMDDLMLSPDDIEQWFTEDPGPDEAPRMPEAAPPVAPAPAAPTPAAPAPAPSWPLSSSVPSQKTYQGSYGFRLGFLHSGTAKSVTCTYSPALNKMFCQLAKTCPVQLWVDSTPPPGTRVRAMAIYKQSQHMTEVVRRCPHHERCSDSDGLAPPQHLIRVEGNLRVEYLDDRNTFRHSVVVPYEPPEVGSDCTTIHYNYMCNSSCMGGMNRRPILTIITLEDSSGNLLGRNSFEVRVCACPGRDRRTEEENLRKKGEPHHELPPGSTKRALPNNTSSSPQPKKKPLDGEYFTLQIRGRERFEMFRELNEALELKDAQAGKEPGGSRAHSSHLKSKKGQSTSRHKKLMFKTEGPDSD
# assay.protocol: TOX21_p53_BLA_p2_ratio: Tox21 HCT-116 p53 Agonism Beta-lactamase Assay, Ratio, Phase 2 (AID 2283592)
Inconclusive results are not listed. Calls of active or inactive are those of the source. Rule for the calls: active = hit-call score of the fitted dose curve at least 0.9, where 1 is the maximum; inconclusive = response in the unintended direction; inactive = score below 0.9.
Write down the outcome that applies. Available outcomes: 1 for active, -1 for inactive

// known answers, use as guide
CN1CCN(c2c(F)cc3c(=O)c(C(=O)O)cn4c3c2OCN4C)CC1 = -1
Cc1ccc(N(CC2=NCCN2)c2cccc(O)c2)cc1 = 1
Cc1ccnc2ccccc12 = -1

With those in mind, consider the next compound.
GET /call?item= CC(COc1ccccc1)NC(C)C(O)c1ccc(O)cc1 (stereo unspecified) returns the recorded outcome of this test.
-1

---

# study.system: Cellular tumor antigen p53 (Homo sapiens) (UniProt P04637)
# assay.protocol: TOX21_p53_BLA_p4_ratio: Tox21 HCT-116 p53 Agonism Beta-lactamase Assay, Ratio, Phase 4 (AID 2283601)
Results filed as inconclusive are left out. Active and inactive are the calls of the source. How the source made its calls: active means hit-call score of the fitted dose curve at least 0.9, where 1 is the maximum; inconclusive means response in the unintended direction; inactive means score below 0.9.
Write down the outcome that applies. Available outcomes: Yes (active), No (inactive)

GET /call?item= `NC(=O)c1ccc[n+]([C@@H]2O[C@H](COP(=O)([O-])OP(=O)(O)OC[C@H]3O[C@@H](n4cnc5c(N)ncnc54)[C@H](O)[C@@H]3O)[C@@H](O)[C@H]2O)c1` returns the recorded outcome of this test.
No

GET /call?item= CO[C@@]1(NC(=O)C2SC(=C(C(N)=O)C(=O)O)S2)C(=O)N2C(C(=O)O)=C(CSc3nnnn3C)CS[C@@H]21 (some centres undefined) returns the recorded outcome of this test.
No

GET /call?item= `CCOC(=O)CC(=O)C(=O)OCC` returns the recorded outcome of this test.
No

---

# assay.protocol: CCTE_Shafer_MEA_dev_bursting_electrodes_number: CCTE's Neural Network Formation Assay for Number of Bursting Electrodes, Shafer Lab (AID 2284043);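 for AC50: potency is for loss of bursting electrodes relative to DMSO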
Inconclusive results are not listed. Active and inactive are the calls of the source. How the source made its calls: active means hit-call score of the fitted dose curve at least 0.9, where 1 is the maximum; inconclusive means response in the unintended direction; inactive means score below 0.9.
reported.endpoint: AC50

Recorded results for 4 compounds are shown here.
CC(C)c1nn(C(=O)NC(C)(C)C)c(=O)n1N = inactive
c1ccc2c(c1)ccc1c3ccccc3ccc21 = inactive
BrC1CC(Br)CC(Br)CC(Br)CC(Br)CC(Br)C1 (stereo not drawn) = 5.42 µM (active)
c1cc2c3c(c1)ccc1cccc(c13)C2 = inactive

Documented AC50 of `CC(C)O` : 11.8 µM (active)

Documented AC50 of `C[C@@H]1CCO[C@H]2Cn3cc(C(=O)NCc4ccc(F)cc4F)c(=O)c(O)c3C(=O)N12` : 1.65 µM (active)

Documented AC50 of CCCCCC=C(C)C(CC)CCO (stereo not drawn) : inactive

Documented AC50 of `CC(=O)N[C@@H](CC(=O)O)C(=O)O` : inactive

---

# study.system: Cellular tumor antigen p53 (Homo sapiens) (UniProt P04637)
# assay.protocol: TOX21_p53_BLA_p4_ratio: Tox21 HCT-116 p53 Agonism Beta-lactamase Assay, Ratio, Phase 4 (AID 2283601)
Results filed as inconclusive are left out. Activity calls are given as the source filed them. Rule for the calls: active = hit-call score of the fitted dose curve at least 0.9, where 1 is the maximum; inconclusive = response in the unintended direction; inactive = score below 0.9.
Write down the outcome that applies. Available outcomes: T = active, F = inactive

// known answers, use as guide
CCOC(=O)C1=C[C@]2(CC)CCCN3CCc4c(n1c1ccccc41)[C@@H]32 = F
O=S(=O)(O)c1cccc(S(=O)(=O)O)c1 = F
CCCOc1ccc2nc(NC(=O)OC)[nH]c2c1 = F

GET /call?item= `Nc1ncnc2c1ncn2CCOCP(=O)(O)O` returns the recorded outcome of this test.
F

GET /call?item= CCCC(C)CO (stereo unspecified) returns the recorded outcome of this test.
F

GET /call?item= `CC(C)COC(=O)OCN1C(=O)CN(CCN2CC(=O)N(COC(=O)OCC(C)C)C(=O)C2)CC1=O` returns the recorded outcome of this test.
T

---

# assay.protocol: TOX21_PR_BLA_Followup_Agonist_viability: Viability Assessment in the Tox21 HEK293 Progesterone Receptor (PR) Agonism Beta-lactamase Follow-Up Assay (AID 2283935);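 note: cells exposed to compound for 16 hr at 37 °C; signal loss means lower viability so actives are cytotoxic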
# Procedure: TOX21_PR_BLA_Followup is a secondary assay for specificity for the TOX21_PR_BLA_Agonist assay. To differentiate true PR agonists from cytotoxic substances, this follow up assay is multiplexed with a cell viability assay. The compounds were also tested for auto fluorescence that may interfere with the biological target readout resulting in potential false positives and/or negatives. […]
Results filed as inconclusive are left out. The source made the active and inactive calls. Rule for the calls: active = hit-call score of the fitted dose curve at least 0.9, where 1 is the maximum; inconclusive = response in the unintended direction; inactive = score below 0.9.
reported.endpoint: outcome

CC(=O)OCC(=O)[C@@]1(O)[C@H](C)C[C@H]2[C@@H]3CCC4=CC(=O)C=C[C@]4(C)[C@@]3(F)[C@@H](O)C[C@@]21C = inactive
Clc1ccccc1CN1CCc2sccc2C1 = inactive
COC(=O)C1=C(C)NC(C)=C(C(=O)OC(C)C)C1c1cccc2nonc12 (centres undefined) = inactive
C[C@@H]1C[C@H]2[C@@H]3C[C@H](F)C4=CC(=O)C=C[C@]4(C)[C@@]3(F)[C@@H](O)C[C@]2(C)[C@@]1(O)C(=O)CO = inactive

---

# assay.protocol: IUF_NPC4_neurite_length_120hr: Leibniz Research Institute for Environmental Medicine (IUF) 120-hour Neuronal Morphology Assay for Neurite Length (NPC4) (AID 2284302)
The source made the active and inactive calls. How the source made its calls: active means hit-call score of the fitted dose curve at least 0.9, where 1 is the maximum; inactive means score below 0.9.
Write down the outcome that applies. Available outcomes: YES (active), NO (inactive)

// known answers, use as guide
CCCCOCCOP(=O)(O)OCCOCCCC = NO
CC(=O)N[C@@H](CC(=O)O)C(=O)O = NO
CC(C)O = NO
CC(C)c1nn(C(=O)NC(C)(C)C)c(=O)n1N = NO
O=C1CC2(CCCC2)CC(=O)N1CCCCN1CCN(c2ncccn2)CC1 = NO

GET /call?item= `CCc1ccccc1` returns the recorded outcome of this test.
NO

GET /call?item= CCCCCC(C)(CC)C(=O)NC (stereo not drawn) returns the recorded outcome of this test.
NO
